biological target: Dehydrogenase/reductase SDR family member 6 (Homo sapiens) (UniProt Q9BUT1); assay: SDR family member 6 ligand binding, Tm shift – biophysical, DSF, SYPRO orange, purified human protein (AID 510); conditions: Purified DHRS6, DSF thermal shift, at 100 µM, protein 2 µM, buffer 10 mM HEPES, pH 7.5, NaCl 150 mM, stronger effect = higher value
Sequence (Q9BUT1 whole entry, looked up): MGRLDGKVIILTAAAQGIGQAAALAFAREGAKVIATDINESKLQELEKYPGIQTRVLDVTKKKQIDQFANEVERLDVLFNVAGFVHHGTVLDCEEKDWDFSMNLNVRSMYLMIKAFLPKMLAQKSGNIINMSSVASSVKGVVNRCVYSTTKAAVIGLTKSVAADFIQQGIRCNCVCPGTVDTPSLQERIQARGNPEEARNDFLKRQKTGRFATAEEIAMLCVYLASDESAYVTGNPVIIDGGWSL
Assignment: determine reported Tm shift for the given compounds.

Input line: Can you share its Tm shift? I mean this compound: "C=CC1=C(C)/C(=C/c2[nH]c(Cc3[nH]c(/C=C4\NC(=O)C(C)=C4C=C)c(C)c3CCC(=O)O)c(CCC(=O)O)c2C)NC1=O"
Output line: 8.1 Celsius

Input line: Can you share its Tm shift? I mean this compound: "O=c1oc2cc(O)ccc2c2oc3cc(O)ccc3c12"
Output line: 2.2 Celsius

Input line: Can you share its Tm shift? I mean this compound: O=C1C2(Cl)C3(Cl)C4(Cl)C(Cl)(Cl)C5(Cl)C3(Cl)C1(Cl)C5(Cl)C24Cl (stereo not given)
Output line: 4.7 Celsius

Input line: Can you share its Tm shift? I mean this compound: O=C(C1CCN(S(=O)(=O)c2cccnc2)CC1)N1CCN(C(c2ccccc2)c2ccc(Cl)cc2)CC1 (stereo not given)
Output line: 2.2 Celsius

Input line: Can you share its Tm shift? I mean this compound: NC(=O)c1ccc[n+](C2OC(COP(=O)(O)OP(=O)(O)OCC3OC(n4cnc5c(N)ncnc54)C(O)C3O)C(O)C2O)c1 (stereo not given)
Output line: 2.4 Celsius
